- Test system: GM1 production in Jurkat cells
- Assay remarks: cells
- Type: cell-based
- Condition info: Homo sapiens, Jurkat, 72 h
pIC50: −log10 of the molar value.
Overview of recorded pIC50 for various compounds
Quantity kind: pIC50

Compound	Value
CC(C)Oc1ccccc1-c1ccc2c(c1)CC(C)(C)C2NC(=O)O[C@@H]1CN2CCC1CC2 (stereo partly drawn)	7.64
COc1cc2c(cc1-c1cccc(CC(C)C)c1)CC(C)(C)C2NC(=O)O[C@@H]1CN2CCC1CC2 (stereo partly drawn)	7.30
CC(C)Oc1ccc(Cl)cc1-c1ccc2c(c1)CC(C)(C)C2NC(=O)O[C@@H]1CN2CCC1CC2 (stereo partly drawn)	7.14
COc1ccc(OC)c(-c2cc3c(cc2F)C(NC(=O)O[C@@H]2CN4CCC2CC4)C(C)(C)C3)c1 (stereo partly drawn)	7.50
COc1ccc(C(C)C)cc1-c1ccc2c(c1)CC(C)(C)C2NC(=O)O[C@@H]1CN2CCC1CC2 (stereo partly drawn)	7.90
CCOc1ccccc1-c1ccc2c(c1)CC(C)(C)C2NC(=O)O[C@@H]1CN2CCC1CC2 (stereo partly drawn)	7.64
CC1(C)Cc2cc(-c3ccnc(C(F)(F)F)c3)ccc2C1NC(=O)O[C@@H]1CN2CCC1CC2 (stereo partly drawn)	7.42
COc1cc(-c2ccc3c(c2)CC(C)(C)C3NC(=O)O[C@@H]2CN3CCC2CC3)ccc1F (stereo partly drawn)	7.24
CN1CCOc2cc(-c3ccc4c(c3)CC(C)(C)C4NC(=O)O[C@@H]3CN4CCC3CC4)ccc21 (stereo partly drawn)	7.55
COc1ccc(-c2ccc3c(c2)CC(C)(C)C3NC(=O)O[C@@H]2CN3CCC2CC3)cc1C(F)(F)F (stereo partly drawn)	7.36
COc1cc2c(cc1-c1ccc(C(C)C)cc1)CC(C)(C)C2NC(=O)O[C@@H]1CN2CCC1CC2 (stereo partly drawn)	8.11
CCCc1ccc(-c2cc3c(cc2F)C(NC(=O)O[C@@H]2CN4CCC2CC4)C(C)(C)C3)cc1 (stereo partly drawn)	8.35
O=C(NC1c2ccc(-c3cccc(C(F)(F)F)c3)cc2CC12CC2)O[C@@H]1CN2CCC1CC2 (stereo partly drawn)	7.31
Cc1ccc(-c2ccc3c(c2)CC(C)(C)C3NC(=O)O[C@@H]2CN3CCC2CC3)cc1C (stereo partly drawn)	7.99
COc1c(F)cccc1-c1ccc2c(c1)CC(C)(C)C2NC(=O)O[C@@H]1CN2CCC1CC2 (stereo partly drawn)	7.49
